Test system: Enterococcus faecium ATCC 8043
test.description: In Vitro Antibacterial Activity, agar dilution MIC
Type: cell-based
condition.label: E. faecium ATCC 8043; BHI agar dilution, 20-24 hours; unit assumed
# key: entry, value: MIC values
Could you kindly put the unit after your number?

Example cases with answers are listed next.
molecule | subject.of.test | measured.quantity | reading
O=C(O)c1cn(C2CC2)c2cc(N3CCNCC3)c(F)cc2c1=O [Cipro, Ciprofloxacin, reference compound] | Enterococcus faecium ATCC 8043 | MIC values | 0.39 µg/mL
CN(C)CC1COC2(CCN(c3nc4c(cc3F)c(=O)c(C(=O)O)cn4-c3ccc(F)cc3F)C2)O1 (centres unmarked) | Enterococcus faecium ATCC 8043 | MIC values | 1.56 µg/mL
C[C@@H]1COc2c(N3CCC4(CC3)OCCCO4)c(F)cc3c(=O)c(C(=O)O)cn1c23 | Enterococcus faecium ATCC 8043 | MIC values | 0.78 µg/mL

What the record says about Cl.Cl.NCC1COC2(CCN(c3cc4c(cc3F)c(=O)c(C(=O)O)cn4-c3ccc(F)cc3F)C2)O1 (centres unmarked) : MIC values is 0.78 µg/mL

What the record says about NC1CN(c2c(F)cc3c(=O)c(C(=O)O)cn(C4CC4)c3c2F)CC12OCCO2 (centres unmarked) : MIC values is 0.39 µg/mL
